- targetSystem: EP4 (Homo sapiens, UniProt P35408)
- Sequence (P35408 whole entry): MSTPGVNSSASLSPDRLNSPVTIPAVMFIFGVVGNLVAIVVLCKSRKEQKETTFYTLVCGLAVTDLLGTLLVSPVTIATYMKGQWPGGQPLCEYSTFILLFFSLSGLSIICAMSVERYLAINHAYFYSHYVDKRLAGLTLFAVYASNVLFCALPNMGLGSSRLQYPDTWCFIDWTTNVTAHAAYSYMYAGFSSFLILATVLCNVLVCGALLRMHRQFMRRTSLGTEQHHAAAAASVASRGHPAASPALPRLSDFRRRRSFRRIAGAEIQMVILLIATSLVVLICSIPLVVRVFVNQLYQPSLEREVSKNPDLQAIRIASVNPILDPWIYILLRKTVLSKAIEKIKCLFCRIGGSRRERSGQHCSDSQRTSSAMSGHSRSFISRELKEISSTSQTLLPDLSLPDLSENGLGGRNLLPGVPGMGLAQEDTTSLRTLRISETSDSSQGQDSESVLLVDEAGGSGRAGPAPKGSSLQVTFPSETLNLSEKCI
testReadout: Ki

| compound | assayResult |
| --- | --- |
| O=C(O)c1ccc(CCC[C@@H]2[C@@H](CCC3CCCCC3)[C@H](O)C[C@H]2Cl)s1 | 2150 nM |
| O=C(O)c1ccc(CCC[C@@H]2[C@@H](CCC3CCCC3)[C@H](O)C[C@H]2Cl)s1 | 2620 nM |

---

log10 EC50 listing for selected molecules.
- targetSystem: EP2 (Homo sapiens)
- experimentalProtocol: EP2 cAMP functional assay
- Format: cell-based
testReadout: log10 EC50 (log10 of the value in nM)

| molecule | log10 EC50 |
| --- | --- |
| CCCCCC1(CC[C@@H]2[C@@H](CCCc3ccc(C(=O)O)s3)[C@H](Cl)C[C@H]2O)CCCCC1 [Entry 5] | 2.18 |
| O=C(O)c1ccc(CCC[C@@H]2[C@@H](CCC3CCCCC3)[C@H](O)C[C@H]2Cl)s1 [Entry 3] | -0.70 |
| O=C(O)c1ccc(CCC[C@@H]2[C@@H](CCC3CCCC3)[C@H](O)C[C@H]2Cl)s1 [compound 1] | -0.22 |
| O=C(O)c1ccc(CCC[C@@H]2[C@@H](/C=C/C3CCCCC3)[C@H](O)C[C@H]2Cl)s1 [Entry 4] | -0.30 |
| O=C(O)c1ccc(CCC[C@@H]2[C@@H](/C=C/C3CCCC3)[C@H](O)C[C@H]2Cl)s1 [Entry 2] | -0.05 |

---

EC50 listing for selected compounds.
- targetSystem: DP (Homo sapiens)
- Sequence (Q13258 whole entry): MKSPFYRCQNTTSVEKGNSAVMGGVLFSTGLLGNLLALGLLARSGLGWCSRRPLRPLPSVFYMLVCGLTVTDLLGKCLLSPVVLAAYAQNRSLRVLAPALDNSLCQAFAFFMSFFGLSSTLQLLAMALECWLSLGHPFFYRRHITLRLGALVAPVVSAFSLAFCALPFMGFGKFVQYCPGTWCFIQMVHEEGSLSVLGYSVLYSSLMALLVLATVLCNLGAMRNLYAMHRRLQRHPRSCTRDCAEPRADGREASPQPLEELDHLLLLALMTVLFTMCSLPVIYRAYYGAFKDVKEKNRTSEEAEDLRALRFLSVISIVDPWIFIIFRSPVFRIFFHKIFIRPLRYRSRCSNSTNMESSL
- experimentalProtocol: Other receptors Ca2+ functional assay, DP
- Assay type: cell-based

| compound | EC50 |
| --- | --- |
| O=C(O)c1ccc(CCC[C@@H]2[C@@H](CCC3CCCC3)[C@H](O)C[C@H]2Cl)s1 [compound 1] | 259 nM |
| O=C(O)c1ccc(CCC[C@@H]2[C@@H](CCC3CCCCC3)[C@H](O)C[C@H]2Cl)s1 [Entry 3] | 548 nM |
| O=C(O)c1ccc(CCC[C@@H]2[C@@H](/C=C/C3CCCC3)[C@H](O)C[C@H]2Cl)s1 [Entry 2] | 191 nM |
| O=C(O)c1ccc(CCC[C@@H]2[C@@H](/C=C/C3CCCCC3)[C@H](O)C[C@H]2Cl)s1 [Entry 4] | 2160 nM |

---

- targetSystem: EP2 (Homo sapiens, UniProt P43116)
- Sequence (P43116 whole entry): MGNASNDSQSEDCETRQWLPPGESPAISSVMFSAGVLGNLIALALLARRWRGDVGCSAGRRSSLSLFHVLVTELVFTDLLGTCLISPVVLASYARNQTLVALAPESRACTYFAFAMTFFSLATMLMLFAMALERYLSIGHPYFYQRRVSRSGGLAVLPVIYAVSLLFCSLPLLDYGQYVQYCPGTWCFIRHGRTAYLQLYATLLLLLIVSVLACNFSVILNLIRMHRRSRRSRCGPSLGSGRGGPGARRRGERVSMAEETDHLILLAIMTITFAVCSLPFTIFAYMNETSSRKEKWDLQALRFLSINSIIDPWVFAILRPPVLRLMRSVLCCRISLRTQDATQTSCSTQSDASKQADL
- experimentalProtocol: EP2 Ca2+ signal functional assay
- Assay type: cell-based
- Text: U.S. Pat. No. 7,427,685 incorporated by reference herein, describes the methods used to obtain the in vitro data in Table 2 below.
Lab note - cut at 7 nM for EC50: class 1 if strictly below, class 0 if not.

| compound | qualitativeLabel |
| --- | --- |
| O=C(O)c1ccc(CCC[C@@H]2[C@@H](CCC3CCCCC3)[C@H](O)C[C@H]2Cl)s1 | class 0 |
| O=C(O)c1ccc(CCC[C@@H]2[C@@H](/C=C/C3CCCC3)[C@H](O)C[C@H]2Cl)s1 | class 1 |
| O=C(O)c1ccc(CCC[C@@H]2[C@@H](CCC3CCCC3)[C@H](O)C[C@H]2Cl)s1 | class 1 |
| CCCCCC1(CC[C@@H]2[C@@H](CCCc3ccc(C(=O)O)s3)[C@H](Cl)C[C@H]2O)CCCCC1 | class 0 |
